Target: PLA2 from Rat Platelet (Rattus norvegicus, UniProt P14423)
Construct: PLA2 released from thrombin-stimulated rat platelets; from tissue; host or cells: thrombin-stimulated rat platelets (released enzyme, purified on MD 7.1 antibody-coupled Sepharose)
Sequence (P14423 22-146): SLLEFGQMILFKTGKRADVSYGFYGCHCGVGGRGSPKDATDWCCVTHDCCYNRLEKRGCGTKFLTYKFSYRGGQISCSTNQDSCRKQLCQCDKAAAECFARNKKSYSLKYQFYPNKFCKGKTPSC
Test: PLA2 inhibitory activity (release of free fatty acid from [14C]phosphatidylethanolamine)
Assay type: biochemical
Settings: Table 5; seco acid (Na); 37° C., 20 minutes, pH 7.4; read-out: PLA2 Inhibitory Activity, IC50, seco acid (Na) (converted)
Structures can show the parent of a compound that is named as a salt.
MEASUREMENT KIND: IC50 (µM)

> print(dat)
                                   compound                             tested.system  display.unit  numeric.result
1  CCCCCCCCCCC(O)CC(O)(C(=O)O)C(O)(C(=O)O)C(O)C(=O)O (stereo not shown) [Cinatrin B seco acid (Na salt)]  PLA2 from Rat Platelet (Rattus norvegicus, UniProt P14423)            µM            75.7

a = C=CCCCCCCCCC(O)CC(O)(C(=O)O)C(O)(C(=O)O)C(O)C(=O)O (stereo not shown) [Cinatrin A seco acid (Na salt)]
b = CCCCCCCCCCCCC(O)(C(=O)O)C(O)(C(=O)O)C(O)C(=O)O (stereo not shown) [Cinatrin C1 seco acid (Na salt)]
c = CCCCCCCCCCCC(O)C(C(=O)O)C(O)(C(=O)O)C(O)C(=O)O (stereo not shown) [Cinatrin C2 seco acid (Na salt)]
Request: Falling order of IC50, please. Enter labels, ranked according to the request.
Response: a, b, c

---

Molecular target: PLA2 from Rat Platelet (Rattus norvegicus)
Construct: PLA2 released from thrombin-stimulated rat platelets; from tissue; host or cells: thrombin-stimulated rat platelets (released enzyme, purified on MD 7.1 antibody-coupled Sepharose)
Test: PLA2 inhibitory activity (release of free fatty acid from [14C]phosphatidylethanolamine)
Assay type: biochemical
Conditions: Table 5; methyl ester; 37° C., 20 minutes, pH 7.4; read-out: PLA2 Inhibitory Activity, IC50, methyl ester (converted)
MEASUREMENT KIND: IC50 (µM)

> print(dat)
                                   compound                             tested.system  measurement.kind  display.unit  numeric.result
1  CCCCCCCCCCC1CC2(OC(=O)C(O)C2(O)C(=O)OC)C(=O)O1 (centres unmarked)  PLA2 from Rat Platelet (Rattus norvegicus)              IC50            µM             215
2  CCCCCCCCCCCCC1(C(=O)OC)OC(=O)C(O)C1(O)C(=O)OC (centres unmarked)  PLA2 from Rat Platelet (Rattus norvegicus)              IC50            µM             142

I = CCCCCCCCCCCC(O)C1C(=O)OC(C(=O)OC)C1(O)C(=O)OC (centres unmarked)
II = C=CCCCCCCCCC1CC2(OC(=O)C(O)C2(O)C(=O)OC)C(=O)O1 (centres unmarked)
III = CCCCCCCCCCCCC1(O)C(=O)OC(C(=O)OC)C1(O)C(=O)OC (centres unmarked)
Request: Ordering: ascending IC50. Enter labels, ranked according to the request.
Response: III, II, I
(III: 133 µM, II: 216 µM, I: 745 µM)
